# measured-target: JAK2 (Homo sapiens)
# Construct: purchased Carna Biosciences
# Sequence (O60674 whole entry): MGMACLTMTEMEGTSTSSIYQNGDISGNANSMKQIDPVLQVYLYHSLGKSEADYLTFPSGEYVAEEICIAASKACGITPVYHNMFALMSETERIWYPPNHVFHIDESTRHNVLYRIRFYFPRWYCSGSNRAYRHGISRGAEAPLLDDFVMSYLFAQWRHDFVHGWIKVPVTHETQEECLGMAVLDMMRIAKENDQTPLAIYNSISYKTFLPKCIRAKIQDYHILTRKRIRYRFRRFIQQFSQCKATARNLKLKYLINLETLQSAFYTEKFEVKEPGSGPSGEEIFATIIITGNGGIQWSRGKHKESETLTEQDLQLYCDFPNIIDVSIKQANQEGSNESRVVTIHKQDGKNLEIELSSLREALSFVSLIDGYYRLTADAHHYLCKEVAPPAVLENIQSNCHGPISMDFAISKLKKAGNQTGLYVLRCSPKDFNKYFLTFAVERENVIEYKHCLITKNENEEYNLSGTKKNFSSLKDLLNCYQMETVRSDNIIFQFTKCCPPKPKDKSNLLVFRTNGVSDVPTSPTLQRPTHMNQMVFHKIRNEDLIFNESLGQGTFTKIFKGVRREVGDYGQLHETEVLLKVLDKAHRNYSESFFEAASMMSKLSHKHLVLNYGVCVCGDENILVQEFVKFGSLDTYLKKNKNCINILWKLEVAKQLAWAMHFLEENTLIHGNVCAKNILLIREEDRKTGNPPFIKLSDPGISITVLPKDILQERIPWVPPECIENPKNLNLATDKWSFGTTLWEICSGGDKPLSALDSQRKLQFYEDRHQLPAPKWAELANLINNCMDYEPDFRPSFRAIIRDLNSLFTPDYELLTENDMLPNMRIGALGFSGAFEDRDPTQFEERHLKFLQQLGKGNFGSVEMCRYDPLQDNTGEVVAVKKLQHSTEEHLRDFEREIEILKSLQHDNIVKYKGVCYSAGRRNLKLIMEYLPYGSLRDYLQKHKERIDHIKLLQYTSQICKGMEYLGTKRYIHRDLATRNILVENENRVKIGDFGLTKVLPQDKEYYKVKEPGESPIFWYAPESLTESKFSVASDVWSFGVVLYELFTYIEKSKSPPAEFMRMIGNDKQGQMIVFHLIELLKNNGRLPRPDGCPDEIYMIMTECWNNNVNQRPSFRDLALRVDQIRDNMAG
# protocol-notes: JAK2 microfluidic kinase assay (Caliper EZ Reader II, FAM labeled peptide substrate)
# Assay type: biochemical
# applied-conditions: IC50 JAK2 ([…]) (Km ATP), Km ATP
pIC50: −log10 of the molar value.
property-name: pIC50

a = Cc1cnc(Nc2cnn(C3CCN(CC#N)CC3)c2)nc1-c1ccc(C(=O)N2CC(C#N)C2)cc1
b = Cc1cnc(Nc2cnn(C3CCN(CC(F)F)CC3)c2)nc1-c1ccc(C(=O)NCC#N)cc1
c = N#CCNC(=O)c1ccc(-c2ccnc(Nc3cnn(C4CC4)c3)n2)cc1F
d = N#CCNC(=O)c1ccc(-c2nc(Nc3cnn(C4CC4)c3)ncc2F)cc1F
Q: Lab note: pIC50 ranking, ascending, for the listed compounds. Answer format: the labels, ordered as requested.
A: d, c, a, b

I = Cc1cnc(Nc2cnn(C3CCN(C)CC3)c2)nc1-c1ccc(C(=O)N2CC(C#N)C2)cc1
II = Cc1cnc(Nc2cnn(C3CCN(CC#N)CC3)c2)nc1-c1ccc(C(=O)NCC#N)cc1
III = Cc1cnc(Nc2cnn(C)c2)nc1-c1ccc(C(=O)NC2CC(O)C2)cc1 (centres unmarked)
Q: In this exercise, place the 3 compounds in ascending sequence of their recorded pIC50. Answer with the labels in sequence, matching the requested order.
A: III, I, II
(III: 7.76, I: 8.44, II: 9.38)

Value source: patent US12595253B2
